The origin of these recorded values is paper PMC12197660.

# run description: GS-441524 plasma PK across species
# test parameters: BALB/c (mouse), Sprague Dawley (rat), beagle (dog), plasma, iv
outcome measure: half-life

Q: Please report the recorded half-life for N#C[C@@]1(c2ccc3c(N)ncnn23)O[C@H](CO)[C@@H](O)[C@H]1O [GS-441524] .
A: 0.7 to 3.4 h

* * *

# run description: Plasma and PBMC PK after IV RDV 10 mg/kg (Table 2)
# Type: in vivo, cynomolgus monkeys
# test parameters: cynomolgus monkey, in vivo, iv, 10 mg/kg, analyte in plasma after IV RDV 10 mg/kg 30-min infusion; mean ± SD, N = 3; read-out: T1/2 in plasma (converted)
Task for the reader: assign each of the following compounds its reported half-life.
Note: unit h is implicit; provide only the numeric part.

Q: Please report the recorded half-life for C[C@H](NP(=O)(O)OC[C@H]1O[C@@](C#N)(c2ccc3c(N)ncnn23)[C@H](O)[C@@H]1O)C(=O)O [GS-704277] .
A: 0.56

Q: Please report the recorded half-life for N#C[C@@]1(c2ccc3c(N)ncnn23)O[C@H](CO)[C@@H](O)[C@H]1O [GS-441524] .
A: 16.1

* * *

# run description: in vivo
# Assay type: in vivo, cynomolgus monkeys
# test parameters: cynomolgus monkey, in vivo, iv, 10 mg/kg
outcome measure: clearance
# output: numeric value plus its unit

Q: Please report the recorded clearance for CCC(CC)COC(=O)[C@H](C)N[P@](=O)(OC[C@H]1O[C@@](C#N)(c2ccc3c(N)ncnn23)[C@H](O)[C@@H]1O)Oc1ccccc1 [RDV, remdesivir, reference compound] .
A: 40 mL/min/kg

* * *

# run description: GS-441524 plasma PK across species
# test parameters: cynomolgus monkey, plasma, po
outcome measure: bioavailability

Q: Please report the recorded bioavailability for `N#C[C@@]1(c2ccc3c(N)ncnn23)O[C@H](CO)[C@@H](O)[C@H]1O` .
A: ~5%

* * *

# run description: Solubility (PBS)
# Assay type: physicochemical
# test parameters: aqueous buffer
outcome measure: solubility (µg/mL)
Note: unit µg/mL is implicit; provide only the numeric part.

Q: Please report the recorded solubility for CCC(CC)COC(=O)[C@H](C)N[P@](=O)(OC[C@H]1O[C@@](C#N)(c2ccc3c(N)ncnn23)[C@H](O)[C@@H]1O)Oc1ccccc1 [RDV, remdesivir, reference compound] .
A: 40.1

* * *

# run description: in vivo
# Assay type: in vivo, cynomolgus monkeys
# test parameters: cynomolgus monkey, in vivo, iv, 10 mg/kg
outcome measure: Vd (L/kg)
Note: unit L/kg is implicit; provide only the numeric part.

Q: Please report the recorded Vd for CCC(CC)COC(=O)[C@H](C)N[P@](=O)(OC[C@H]1O[C@@](C#N)(c2ccc3c(N)ncnn23)[C@H](O)[C@@H]1O)Oc1ccccc1 [RDV, remdesivir, reference compound] .
A: 0.504

* * *

# run description: LogD
# Format: physicochemical
Task for the reader: assign each of the following compounds its reported logD.

Q: Please report the recorded logD for CC(C)C(=O)OC[C@H]1O[C@@](C#N)(c2ccc3c(N)ncnn23)[C@H](O)[C@@H]1O [ODV, obeldesivir] .
A: 0.9

Q: Please report the recorded logD for N#C[C@@]1(c2ccc3c(N)ncnn23)O[C@H](CO)[C@@H](O)[C@H]1O [GS-441524] .
A: < 0.3

Q: Please report the recorded logD for CCC(CC)COC(=O)[C@H](C)N[P@](=O)(OC[C@H]1O[C@@](C#N)(c2ccc3c(N)ncnn23)[C@H](O)[C@@H]1O)Oc1ccccc1 [RDV, remdesivir, reference compound] .
A: 2.5
